Where do the numbers come from? From patent US11566007B2.

Entries and their IC50 values follow.
assay_system: K-Ras G12C (Homo sapiens (Human), UniProt P01116+P62937, G12C)
Sequence (P01116-2 other isoform, or with tags, fused parts or gaps G12C, one chain of several): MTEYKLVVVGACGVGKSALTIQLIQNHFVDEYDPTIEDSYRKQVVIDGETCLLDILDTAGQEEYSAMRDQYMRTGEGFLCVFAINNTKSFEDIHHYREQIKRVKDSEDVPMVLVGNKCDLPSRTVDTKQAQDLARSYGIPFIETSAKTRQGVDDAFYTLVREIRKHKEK
test_protocol: Ras-Raf (BRAF RBD) disruption / FRET / MOA assay, KRAS G12C
Format: biochemical
protocol_conditions: KRAS G12C; Ras-Raf disruption/FRET/MOA assay; read-out: IC50* KRAS G12C FRET data

{"compound": "C=CC(=O)N1CCO[C@H]2CCN(C(=O)N(C)[C@H](C(=O)N[C@H]3Cc4nc(cs4)-c4ccc5c(c4)c(c(-c4cccnc4[C@H](C)OC)n5CC)CC(C)(C)COC(=O)[C@@H]4CCCN(N4)C3=O)C(C)C)C[C@H]21 (atropisomer, axis not shown)", "IC50": "10 to 100 nM"}
{"compound": "C=CC(=O)N1CC[C@H](C(=O)N(C)[C@H](C(=O)N[C@H]2Cc3cc(CF)cc(c3)-c3ccc4c(c3)c(c(-c3cccnc3[C@H](C)OC)n4CC)CC(C)(C)COC(=O)[C@@H]3CCCN(N3)C2=O)C(C)C)C1 (atropisomer, axis not shown)", "IC50": "10 to 100 nM"}
{"compound": "C=CC(=O)N(C)CCCC(=O)N(C)[C@H](C(=O)N[C@H]1Cc2cc(O)cc(c2)-c2ccc3c(c2)c(c(-c2cccnc2COC)n3CC)CC(C)(C)COC(=O)[C@@H]2CCCN(N2)C1=O)C(C)C", "IC50": "100 to 1000 nM"}
{"compound": "C=CC(=O)N1CC[C@H](C(=O)N(C)[C@H](C(=O)N[C@H]2Cc3cc(O)cc(c3)-c3ccc4c(c3)c(c(-c3csc(N(C)C)n3)n4CC)CC(C)(C)COC(=O)[C@@H]3CCCN(N3)C2=O)C(C)C)C1", "IC50": "1000 to 10000 nM"}

* * *

assay_system: KRAS G12D (Homo sapiens (Human), UniProt P01116+P62937, G12D)
Sequence (P01116-2 other isoform, or with tags, fused parts or gaps G12D, one chain of several): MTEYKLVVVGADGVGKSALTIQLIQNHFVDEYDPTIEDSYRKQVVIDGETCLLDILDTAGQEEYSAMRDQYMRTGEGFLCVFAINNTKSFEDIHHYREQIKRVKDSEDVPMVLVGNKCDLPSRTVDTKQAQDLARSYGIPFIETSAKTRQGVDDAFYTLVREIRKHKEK
test_protocol: Ras-Raf (BRAF RBD) disruption / FRET / MOA assay, KRAS G12D
Assay type: biochemical
protocol_conditions: Ras-Raf disruption/FRET/MOA assay; class symbols; read-out: KRAS G12D FRET data IC50
property: IC50

{"molecule": "C=CC(=O)N1CC[C@H](C(=O)N(C)[C@H](C(=O)N[C@H]2Cc3cc(O)cc(c3)-c3ccc4c(c3)c(c(-c3cn(C)cn3)n4CC)CC(C)(C)COC(=O)[C@@H]3CCCN(N3)C2=O)C(C)C)C1", "property": "IC50", "reported_result": "> 10 µM"}
{"molecule": "CCn1c(-c2cccnc2[C@H](C)OC)c2c3cc(ccc31)-c1csc(n1)C[C@H](NC(=O)[C@H](C)N(C)C(=O)[C@H]1CCN(C(=O)C#CC(C)(C)N3CCC3)C1)C(=O)N1CCC[C@H](N1)C(=O)OCC(C)(C)C2 (atropisomer, axis not shown)", "property": "IC50", "reported_result": "> 10 µM"}
{"molecule": "C=CC(=O)N1CC[C@H](C(=O)N(C)[C@H](C(=O)N[C@H]2Cc3cc(C(F)F)cc(n3)-c3ccc4c(c3)c(c(-c3cccnc3[C@H](C)OC)n4CC)CC(C)(C)COC(=O)[C@@H]3CCCN(N3)C2=O)C(C)C)C1 (atropisomer, axis not shown)", "property": "IC50", "reported_result": "> 10 µM"}
{"molecule": "CCn1c(-c2cccnc2[C@H](C)OC)c2c3cc(ccc31)-c1cccc(c1)C[C@H](NC(=O)[C@H](C(C)C)N1CO[C@@]3(CCN(C(=O)C#CC(C)(C)N4CCC4)C3)C1=O)C(=O)N1CCC[C@H](N1)C(=O)OCC(C)(C)C2 (atropisomer, axis not shown)", "property": "IC50", "reported_result": "> 10 µM"}

* * *

Reported pIC50 by item:
assay_system: KRAS G12V (Homo sapiens (Human), UniProt P01116+P62937, G12V)
Sequence (P01116-2 other isoform, or with tags, fused parts or gaps G12V, one chain of several): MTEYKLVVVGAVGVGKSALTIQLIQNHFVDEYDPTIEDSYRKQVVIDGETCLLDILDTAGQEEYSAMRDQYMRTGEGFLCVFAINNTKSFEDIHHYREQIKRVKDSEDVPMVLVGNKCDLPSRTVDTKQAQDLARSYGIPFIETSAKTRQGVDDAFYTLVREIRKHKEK
test_protocol: Ras-Raf (BRAF RBD) disruption / FRET / MOA assay, KRAS G12V
Type: biochemical
protocol_conditions: read-out: IC50* KRAS G12V FRET data
pIC50: −log10 of the molar value.

{"compound": "CCn1c(-c2cccnc2COC)c2c3cc(ccc31)-c1cc(O)cc(c1)C[C@H](NC(=O)[C@H](C(C)C)N(C)C(=O)[C@H]1CCN(C(=O)/C=C/CN3CCOCC3)C1)C(=O)N1CCC[C@H](N1)C(=O)OCC(C)(C)C2", "assay_system": "KRAS G12V (Homo sapiens (Human), UniProt P01116+P62937, G12V)", "pIC50": "5.00 to 6.00"}
{"compound": "C=CC(=O)N1CC[C@H](C(=O)N(C)[C@H](C(=O)N[C@H]2Cc3cc(O)cc(c3)-c3ccc4c(c3)c(c(-c3cccnc3[C@@H](OC)C3CC3)n4CC)CC(C)(C)COC(=O)[C@@H]3CCCN(N3)C2=O)C(C)C)C1 (atropisomer, axis not shown)", "assay_system": "KRAS G12V (Homo sapiens (Human), UniProt P01116+P62937, G12V)", "pIC50": "6.00 to 7.00"}
{"compound": "CCn1c(-c2cccnc2[C@H](C)OC)c2c3cc(ccc31)-c1cnc(o1)C[C@H](NC(=O)[C@@H](COC1CN(C(=O)C#CC(C)(C)N(C)C)C1)C(C)C)C(=O)N1CCC[C@H](N1)C(=O)OCC(C)(C)C2 (atropisomer, axis not shown)", "assay_system": "KRAS G12V (Homo sapiens (Human), UniProt P01116+P62937, G12V)", "pIC50": "< 5.00"}
{"compound": "CCn1c(-c2cccnc2)c2c3cc(ccc31)-c1csc(c1)C[C@H](NC(=O)[C@H](C(C)C)N(C)C(=O)[C@H]1CCN(C(=O)C#CCN3CCOCC3)C1)C(=O)N1CCC[C@H](N1)C(=O)OCC(C)(C)C2", "assay_system": "KRAS G12V (Homo sapiens (Human), UniProt P01116+P62937, G12V)", "pIC50": "< 5.00"}

* * *

pIC50 values, listed per item
assay_system: NRAS Q61R (Homo sapiens (Human), UniProt P01111+P62937, Q61R)
Sequence (P01111 whole entry Q61R, one chain of several): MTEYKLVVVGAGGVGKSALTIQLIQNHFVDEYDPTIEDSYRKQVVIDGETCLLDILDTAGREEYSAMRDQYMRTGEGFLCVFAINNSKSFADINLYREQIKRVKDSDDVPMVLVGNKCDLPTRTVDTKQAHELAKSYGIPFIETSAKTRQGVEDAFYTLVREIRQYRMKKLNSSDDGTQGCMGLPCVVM
test_protocol: Ras-Raf (BRAF RBD) disruption / FRET / MOA assay, NRAS Q61R
Assay type: biochemical
protocol_conditions: NRAS Q61R; Ras-Raf disruption/FRET/MOA assay; read-out: IC50* NRAS Q61R FRET data
pIC50: −log10 of the molar value.

{"compound": "CCn1c(-c2cccnc2[C@H](C)OC)c2c3cc(ccc31)-c1csc(n1)C[C@H](NC(=O)[C@H](C(C)C)N(C)C(=O)N1CCC3(CC1)CN(C(=O)/C=C/C(F)F)C3)C(=O)N1CCC[C@H](N1)C(=O)OCC(C)(C)C2 (atropisomer, axis not shown)", "pIC50": "6.00 to 7.00"}
{"compound": "CO[C@@H](C)c1ncccc1-c1c2c3cc(ccc3n1CC(F)(F)F)-c1cccc(c1)C[C@H](NC(=O)[C@H](C(C)C)N(C)C(=O)[C@H]1CCN(C(=O)C#CC(C)(C)N(C)C)C1)C(=O)N1CCC[C@H](N1)C(=O)OCC(C)(C)C2 (atropisomer, axis not shown)", "pIC50": "5.00 to 6.00"}
{"compound": "C=CC(=O)N1CC[C@H](C(=O)N2CC[C@H](C)[C@H]2C(=O)N[C@H]2Cc3cccc(c3)-c3ccc4c(c3)c(c(-c3cccnc3[C@H](C)OC)n4CC)CC(C)(C)COC(=O)[C@@H]3CCCN(N3)C2=O)C1 (atropisomer, axis not shown)", "pIC50": "5.00 to 6.00"}
{"compound": "C=CC(=O)N1CC[C@H](C(=O)N(C)[C@H](C(=O)N[C@H]2CC3=CCCN(C3)c3ccc4c(c3)c(c(-c3cccnc3[C@H](C)OC)n4CC)CC(C)(C)COC(=O)[C@@H]3CCCN(N3)C2=O)C(C)C)C1 (atropisomer, axis not shown)", "pIC50": "< 5.00"}

* * *

Measured IC50 by item
assay_system: NRAS WT (Homo sapiens (Human), UniProt P01111+P62937)
Sequence (P01111 whole entry): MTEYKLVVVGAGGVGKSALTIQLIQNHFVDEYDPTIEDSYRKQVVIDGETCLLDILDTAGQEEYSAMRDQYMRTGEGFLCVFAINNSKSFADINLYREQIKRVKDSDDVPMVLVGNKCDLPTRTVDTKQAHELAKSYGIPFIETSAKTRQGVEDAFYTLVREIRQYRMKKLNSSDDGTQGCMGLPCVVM
Sequence (P62937 whole entry): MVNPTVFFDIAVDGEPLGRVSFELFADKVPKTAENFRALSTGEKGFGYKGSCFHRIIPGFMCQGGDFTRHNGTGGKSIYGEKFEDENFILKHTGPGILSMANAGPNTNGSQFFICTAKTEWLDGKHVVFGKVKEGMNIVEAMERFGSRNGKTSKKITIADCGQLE
test_protocol: Ras-Raf (BRAF RBD) disruption / FRET / MOA assay, NRAS WT
Type: biochemical
protocol_conditions: read-out: IC50* NRAS WT FRET data

{"compound": "C=CC(=O)N1CCOC2(CCN(C(=O)N(C)[C@H](C(=O)N[C@H]3Cc4cccc(c4)-c4ccc5c(c4)c(c(-c4cccnc4[C@H](C)OC)n5CC(F)(F)F)CC(C)(C)COC(=O)[C@@H]4CCCN(N4)C3=O)C(C)C)CC2)C1 (atropisomer, axis not shown)", "assay_system": "NRAS WT (Homo sapiens (Human), UniProt P01111+P62937)", "IC50": "100 to 1000 nM"}
{"compound": "C=CC(=O)N(C)C[C@@H]1CCN(C(=O)N(C)[C@H](C(=O)N[C@H]2Cc3nc(cs3)-c3ccc4c(c3)c(c(-c3cccnc3[C@H](C)OC)n4CC)CC(C)(C)COC(=O)[C@@H]3CCCN(N3)C2=O)C(C)C)C1 (atropisomer, axis not shown)", "assay_system": "NRAS WT (Homo sapiens (Human), UniProt P01111+P62937)", "IC50": "100 to 1000 nM"}
